Molecular target: triosephosphate isomerase (Tbb TIM) (Trypanosoma brucei)
Sequence (P04789 whole entry): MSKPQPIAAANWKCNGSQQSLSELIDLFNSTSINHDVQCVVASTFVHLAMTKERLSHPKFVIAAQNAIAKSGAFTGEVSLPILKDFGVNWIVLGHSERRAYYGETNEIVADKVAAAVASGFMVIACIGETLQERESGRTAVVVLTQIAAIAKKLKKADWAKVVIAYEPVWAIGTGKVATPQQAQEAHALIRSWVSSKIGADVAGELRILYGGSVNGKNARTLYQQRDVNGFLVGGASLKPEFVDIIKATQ
reported.metric: Kd (mM)
Form entry: value (mM) — number only.

// assay triosephosphate isomerase (Tbb TIM) (Trypanosoma brucei), entry O=[PH](O)O , Kd value = 19
